Source listed as ChEMBL document CHEMBL3988442.

// values below are reported Percent Effect
# System: Wolbachia pipientis
# experiment notes: Anti-Wolbachia Cell-Based Screen
# Type: functional
# Parameters: scale not given: in the data most compounds retested in dose-response had high values
# condition label: 5 µM
In all, about 48,000 compounds went through this assay and about 13,000 (27%) showed an effect of 50% or more. The list shows a part of the results.
Enter your answer as a number in %; do not include the unit.

Please review the following examples before continuing.
>  <compound>
CS(=O)(=O)c1ccc(OCCNCc2cccc(Cl)c2)cc1

>  <target>
Wolbachia pipientis

>  <Percent Effect [%]>
6.711

$$$$
>  <compound>
Cc1ccccc1-c1cncc(C2CCN(S(=O)(=O)N(C)C)CC2)n1

>  <target>
Wolbachia pipientis

>  <Percent Effect [%]>
110.9

$$$$
>  <compound>
COCCc1noc(CN2CCN(CC(O)c3ccccc3)CC2)n1 (centres undefined)

>  <target>
Wolbachia pipientis

>  <Percent Effect [%]>
5.305

$$$$
>  <compound>
COCCNC(=O)c1nc2c(s1)CCCN2c1ccc(C)nn1

>  <target>
Wolbachia pipientis

>  <Percent Effect [%]>
1.037

$$$$
>  <compound>
CNCc1ccc([C@@H]2CN(C)C[C@H]2C(N)=O)cc1.Cl

>  <target>
Wolbachia pipientis

>  <Percent Effect [%]>
68.94

$$$$
>  <compound>
COCCN(C)C(=O)c1nc2c(s1)CCCN2c1ncccn1

>  <target>
Wolbachia pipientis

>  <Percent Effect [%]>
-1.851

$$$$
>  <compound>
CNCc1ccc([C@@H]2CN(C(C)=O)C[C@H]2C(N)=O)cc1.Cl

>  <target>
Wolbachia pipientis

>  <Percent Effect [%]>
129.4

$$$$
>  <compound>
COCCN(CC(F)F)c1cc(COC)nc2ncnn12

>  <target>
Wolbachia pipientis

>  <Percent Effect [%]>
3.034

$$$$

Query string: Which Percent Effect reading was recorded for the compound Cn1cncc1-c1nnc([C@H]2CCN(C3CCOCC3)C2)o1 ?
Result string: -2.913

====

# Tested on: Wolbachia pipientis
# experiment notes: Anti-Wolbachia Cell-Based Screen
# Format: functional
# Set-up: scale not given: in the data most compounds retested in dose-response had high values
# condition label: 5 µM
The whole screen tested about 48,000 compounds, of which about 13,000 (27%) showed an effect of 50% or more. The list shows a part of the results.
observation type: Percent Effect (%)
Unit % implied. Number only.

Consider the following illustrative entries.
>  <compound>
CC(C)NC(=O)N1CCN(CCn2cccn2)c2ncccc2C1.O=C(O)C(F)(F)F

>  <readout units>
%

>  <measurement>
105

$$$$
>  <compound>
CCC(=O)N1CCN(CCn2cccn2)c2ncccc2C1.O=C(O)C(F)(F)F

>  <readout units>
%

>  <measurement>
88.49

$$$$

Query string: What value of Percent Effect has been recorded for this entry: Cc1ccc(C(=O)N2CCSCC2)cc1NC(=O)NCCO
Result string: -7.623

====

# Test system: Wolbachia pipientis
# experiment notes: Anti-Wolbachia Cell-Based Screen
# Type: functional
# Parameters: scale not given: in the data most compounds retested in dose-response had high values
# condition label: 5 µM
Among all 48,000 compounds or so, about 13,000 (27%) showed an effect of 50% or more. Some of the results follow.
Catalogue of Percent Effect values
Give the value, in units of %, as a plain number.

>  <compound>
O=C(CCC1CCN(C(=O)c2csnn2)CC1)NCc1cccc(Cl)c1

>  <Percent Effect, %>
-4.206

$$$$
>  <compound>
O=C(NCC(O)COc1ccccc1)C1(c2ccc(F)cc2)CC1 (centres undefined)

>  <Percent Effect, %>
-6.241

$$$$
>  <compound>
c1ccc(Cc2nnc(CN3CCCC3Cn3cccn3)o2)cc1 (centres undefined)

>  <Percent Effect, %>
131.9

$$$$
>  <compound>
c1ccc(Cc2nnc(CN3CCCCC3Cn3cncn3)o2)cc1 (centres undefined)

>  <Percent Effect, %>
108.9

$$$$

Query string: Param item = Cc1[nH]c2c(F)cccc2c1CC(=O)NCc1csc(N(C)C)n1 ; retrieve measured Percent Effect.
Result string: -5.819

Query string: What does the data say about its Percent Effect? Entry: O=C(Cc1csc(-c2ccccc2Cl)n1)NCc1cccc(C(=O)O)c1
Result string: 96.86

Query string: Look up Percent Effect: CC1CCCCN1C(=O)CN1CCN(c2ccc3nncn3n2)CC1 (centres undefined)
Result string: -2.497

Query string: Any idea what its Percent Effect is? The compound is CCc1nnc(CN2CCCCC2Cn2cncn2)o1 (centres undefined)
Result string: 78.77

Query string: Given the compound CCc1nnc(CN2CCCCC2Cn2nc(C)nc2C)o1 (centres undefined) , what is its reported Percent Effect?
Result string: 93.98

Query string: GET /values?readout=Percent Effect&item= CC[C@@]1(O)CCN(C(=O)c2ccoc2)C[C@H]1O
Result string: -13.59

Query string: Can you share its Percent Effect? I mean this compound: Cc1cnn(CC2CCCCN2CCn2cncn2)c1 (centres undefined)
Result string: -5.934
